# Tested on: RAW-Dual (murine macrophage reporter line)
# assay protocol: IRF reporter (Lucia luciferase) activity fold change vs agonist alone; higher = enhanced IRF activity
# conditions: modulator concentration 10 µM; agonist: 3'3'-cGAMP 10 ug/mL
assay metric: IRF reporter

>>> test_value("Cc1cc(OCC(=O)NC2CC(C)(C)NC(C)(C)C2)ccc1Br")
0.952
>>> test_value("Cc1cccc(Nc2ccccc2C(=O)O)c1C")
1.03
>>> test_value("CN1CCC(=C2c3ccccc3C=Cc3ccccc32)CC1.Cl")
0.794
>>> test_value("Cc1cc(C)c(-c2csc(NC(=O)C=Cc3cccs3)n2)c(C)c1")
1.02
>>> test_value("Clc1ccc(-c2nc(N3CCCCC3)nc3ccccc23)cc1")
0.839
>>> test_value("O=C(NCCCn1ccc2cccnc21)c1ccccc1C(F)(F)F")
1.06

---

# System: RAW-Dual (murine macrophage reporter line)
# assay protocol: IRF reporter (Lucia luciferase) activity fold change vs agonist alone; higher = enhanced IRF activity
# conditions: modulator concentration 10 µM; agonist: MPLA […]
assay metric: IRF reporter

>>> test_value("CN(C)CCNC(=S)NC(=O)C12CCC3CC(CC(C3)C1)C2")
1.07
>>> test_value("O=C(O)C=Cc1ccc(S(=O)(=O)NCc2cccnc2)cc1")
1.72
>>> test_value("NCCNc1ccc(NCCN)c2c1C(=O)c1ccncc1C2=O.O=C(O)/C=C\\C(=O)O.O=C(O)/C=C\\C(=O)O")
1.66
>>> test_value("COc1ccc(S(=O)(=O)NC(C)C)c2ccccc12")
1.08
>>> test_value("Cc1cc(C)c(NC(=O)COc2ccc(C)cc2C(C)(C)C)c(C)c1")
1.01
>>> test_value("COc1ccc(CC(N)C(=O)NC2C(CO)OC(n3cnc4c(N(C)C)ncnc43)C2O)cc1.Cl.Cl (stereo unspecified)")
1.3
>>> test_value("Brc1ccc2ncnc(NCc3ccco3)c2c1")
0.7
>>> test_value("COc1ccc(CCN(C)CCCC(C#N)(c2ccc(OC)c(OC)c2)C(C)C)cc1OC.Cl (stereo unspecified)")
1.27
>>> test_value("COC(=O)C1=C(C)NC(=O)CC1c1ccc(Cl)c(Cl)c1 (stereo unspecified)")
1.23
>>> test_value("Cl.OC(CCN1CCCC1)(c1ccccc1)C1CCCCC1 (stereo unspecified)")
1.18
>>> test_value("CS(=O)(=O)Nc1cccc(F)c1")
1.07

---

# Test system: RAW-Dual (murine macrophage reporter line)
# assay protocol: NF-kB reporter (SEAP) activity fold change vs agonist alone; higher = enhanced NF-kB activity
# conditions: modulator concentration 10 µM; agonist: MPLA […]
Lab note: compare NF-kB reporter against 1. Equal or greater, write label 1. Smaller, write label 0.

>>> category_label("CC(=O)Oc1ccc(C(=O)Nc2ccccc2Br)cc1")
"label 0"
>>> category_label("CC1(C)Cc2c(sc3nc(SCC(N)=O)n(CCc4ccccc4)c(=O)c23)CO1")
"label 0"
>>> category_label("COC(=O)Nc1nc2cc(C(=O)c3cccs3)ccc2[nH]1 [Prestw-100]")
"label 1"
>>> category_label("CCN1CC(CCN2CCOCC2)C(c2ccccc2)(c2ccccc2)C1=O.Cl.O (configuration not stated)")
"label 1"
>>> category_label("COc1cc(CNCc2ccc3ccccc3c2)cc(OC)c1")
"label 1"

---

# System: RAW-Dual (murine macrophage reporter line)
# assay protocol: IRF reporter (Lucia luciferase) activity fold change vs agonist alone; higher = enhanced IRF activity
# conditions: modulator concentration 10 µM; agonist: MPLA […]
Listed next: entries and their corresponding IRF reporter.
assay metric: IRF reporter

>>> test_value("N#Cc1c(NC(=O)c2cccc3ccccc23)sc2c1CCCC2")
1.48
>>> test_value("CC1=NN(c2ccc(C)cc2)C(=O)C1=Cc1c(C)nn(-c2ccc(C)cc2C)c1O")
1.26
>>> test_value("N#CC(=Cc1ccc(-c2ccc(Cl)cc2)o1)C(N)=O")
1.63
>>> test_value("Cc1cccc(N2C(=O)C(=Cc3cccc([N+](=O)[O-])c3)SC2=S)c1C")
1.29
>>> test_value("CCCCOC(=O)C1=C(C)NC2=C(C(=O)CCC2)C1c1cccc(C(F)(F)F)c1 (centres undefined)")
1.15
>>> test_value("COCCn1c(C)cc(C(=O)CSc2ncnc3sc4c(c23)CCC4)c1C")
1.16
>>> test_value("O=S(=O)(NC1CC1)c1cnn(-c2ccccc2)c1")
1.52
>>> test_value("CS(=O)(=O)N(CC(=O)NCCSCc1cccc(Cl)c1)c1ccc(Cl)cc1")
0.902
>>> test_value("CCOC(=O)C1CCN(C(=O)c2ccc(C#CC(C)(C)O)cc2)CC1")
1.46
>>> test_value("Cc1ccc(S(=O)(=O)CCSc2cccc(C(=O)Nc3ccccc3)c2)cc1")
1.08
>>> test_value("O=c1c(O)c(-c2ccccc2)oc2cc(O)ccc12")
0.789
>>> test_value("CC(=O)NC(NC(C)=O)c1cccc([N+](=O)[O-])c1")
1.05
>>> test_value("CN1CCC(COc2cnc(-c3cccc(Cn4nc(-c5cccc(C#N)c5)ccc4=O)c3)nc2)CC1")
1.37
>>> test_value("CC1(C)C(=O)C2CC3(O)C4=CC(=O)OC(c5ccoc5)C4(C)CCC3C(C)(C2=O)C1CC(=O)O (centres undefined)")
1.25
>>> test_value("NCC(O)CNCCc1ccccc1 (centres undefined)")
1.02
>>> test_value("COC(=O)c1c(NC(=O)C2CCCCC2)sc2c1CC(C)(C)NC2(C)C")
1.82
>>> test_value("CCCNCC(O)COc1ccccc1C(=O)CCc1ccccc1 (centres undefined)")
0.869
>>> test_value("COC(=O)Nc1nc2cc(C(=O)c3cccs3)ccc2[nH]1")
2.05
>>> test_value("COc1cc(Nc2ncc3c(n2)-c2ccc(Cl)cc2C(c2c(F)cccc2OC)=NC3)ccc1C(=O)O")
1.06
>>> test_value("Cc1cccc(C(=O)NC(Nc2ccccc2C(F)(F)F)C(Cl)(Cl)Cl)c1 (centres undefined)")
1.26
>>> test_value("CC1(C)CC(=O)C2=C(C1)OC(N)=C(C#N)C2C1CCCCC1 (centres undefined)")
1.47
>>> test_value("Oc1ccc(N=Cc2ccccc2O)cc1")
0.839
>>> test_value("Cc1cccc(-c2nn3c(c2-c2ccnc4ccc(C(N)=O)cc24)CCC3)n1")
1.12
>>> test_value("CCCN(CCC)CCc1cccc2c1CC(=O)N2.Cl")
0.912
>>> test_value("COc1ccc(NC(=O)c2cn(-c3cc(N4CCCCC4)ncn3)cn2)cc1F")
1.23
>>> test_value("COc1cc2c(cc1OC)C(=O)C(CC1CCN(Cc3ccccc3)CC1)C2.Cl (centres undefined)")
1.29
>>> test_value("COc1cc2nccc(Oc3ccc(NC(=O)Nc4cc(C)on4)c(Cl)c3)c2cc1OC")
1.02
>>> test_value("CN1C(=O)C(=Cc2cccc3ccccc23)SC1=S")
1.33
>>> test_value("O=C(CCCN1CCC(O)(c2ccc(Cl)cc2)CC1)c1ccc(F)cc1")
1.38
>>> test_value("CCOc1ccc(S(=O)(=O)NCCn2nc(C3CC3)ccc2=O)cc1C")
0.875
>>> test_value("COc1ccccc1N1CCN(CC(O)COc2cccc3ccccc23)CC1 (centres undefined)")
1.35
>>> test_value("Cc1cc(-c2ccccc2)nnc1NCCN1CCOCC1.Cl.Cl")
1.27
>>> test_value("Brc1ccc2ncnc(N3CCOCC3)c2c1")
0.592
>>> test_value("COc1cc2c(cc1Cc1cccc(Cl)c1F)c(=O)c(C(=O)O)cn2[C@H](CO)C(C)C")
0.848
>>> test_value("O=S1(=O)Nc2c(ccc3cccnc23)-c2ccccc21")
0.29
>>> test_value("CCCCCCCCc1ccc(CCC(N)(CO)CO)cc1.Cl")
0.615
>>> test_value("CNC(=O)[C@@H](NC(=O)[C@H](CC(C)C)[C@H](O)C(=O)NO)C(C)(C)C")
1
>>> test_value("COc1ccc(OC)c(CN2CCCC(O)C2)c1 (centres undefined)")
1.06
>>> test_value("COC(=O)c1ccc2c(c1)NC(=O)/C2=C(\\Nc1ccc(N(C)C(=O)CN2CCN(C)CC2)cc1)c1ccccc1")
0.474
>>> test_value("Nc1nonc1C(=O)NN=Cc1cc(Br)c(O)c(Br)c1")
1.05
>>> test_value("CCC(C(=O)NCc1ccnc(-c2ccncc2)c1)c1ccccc1 (centres undefined)")
0.545
>>> test_value("CC1(C)OC[C@@H](COC(=O)CCc2ccc(OC[C@@H](O)CNCCNC(=O)N3CCOCC3)cc2)O1.Cl")
0.832
>>> test_value("O=C(c1ccc(-c2nc3ccccc3s2)s1)N1CCOCC1")
1.21
>>> test_value("O=C(CCC(=O)NN=Cc1ccc(O)cc1O)NN=Cc1ccc(O)cc1O")
1.26

---

# System: RAW-Dual (murine macrophage reporter line)
# assay protocol: viability score (confluency relative to resting cells, overnight) (fraction); higher = more viable, active = viable (0.7 or more)
# conditions: modulator concentration 10 µM
Outcomes: 1 (yes) for active, 0 (no) for inactive

>>> category_label("N#CC1=C(NC(=S)NC(=O)c2ccccc2)c2ccccc2CC12CCCC2")
"1 (yes)"
>>> category_label("COc1ccc(S(=O)(=O)N2CCC(c3ccccc3)S(=O)(=O)CC2)cc1Cl (stereo unspecified)")
"1 (yes)"
>>> category_label("CC(C=CC1=C(C)CCCC1(C)C)=CC=CC(C)=CC(=O)O")
"1 (yes)"
>>> category_label("CNCCCC12CCC(c3ccccc31)c1ccccc12.Cl")
"0 (no)"
>>> category_label("Cl.Clc1ccccc1CN1CCc2sccc2C1")
"1 (yes)"
>>> category_label("COc1cc(Cl)c(C)cc1NC(=O)c1ccccc1Cl")
"1 (yes)"
>>> category_label("O=C(NN=Cc1c(O)ccc2ccccc12)c1ccncc1")
"1 (yes)"
>>> category_label("Cn1nccc1-c1ccc(CNC(=O)c2cc(Br)cs2)cn1")
"1 (yes)"
>>> category_label("Cc1ccnc2c1NC(=O)c1cccnc1N2C1CC1")
"1 (yes)"
>>> category_label("CN1C2CCCC1CC(NC(=O)c1nn(C)c3ccccc13)C2.Cl (stereo unspecified)")
"1 (yes)"
>>> category_label("O=c1c2c([nH]c3c(-c4cccc5ccccc45)cnn13)CCCC2")
"1 (yes)"
>>> category_label("Br.COc1ccc2c3c1OC1CC(O)C=CC31CCN(C)C2 (stereo unspecified)")
"1 (yes)"
>>> category_label("O=C(c1ccccc1)c1cc([N+](=O)[O-])ccc1N1CCOCC1")
"1 (yes)"
>>> category_label("CCOc1ccc(Nc2oc(-c3ccc(COc4ccc(C)cc4)o3)nc2C#N)cc1")
"1 (yes)"
>>> category_label("COc1ccc(OC)c(C=NNC(=O)c2cc(C)oc2C)c1")
"0 (no)"
>>> category_label("Cl.Cl.OCCN1CCN(CC/C=C2/c3ccccc3Sc3ccc(C(F)(F)F)cc32)CC1")
"1 (yes)"
>>> category_label("COc1ccc(CCn2c(C)c(C)n3c4c(=O)n(CCC(C)C)c(=O)n(C)c4nc23)cc1OC")
"1 (yes)"
>>> category_label("CCN(Cc1ccncc1)C(=O)C(CO)c1ccccc1 (stereo unspecified)")
"1 (yes)"
>>> category_label("O=S(=O)(Cc1cccc(Cl)c1)N1C2CCC1CC(Oc1cccnc1)C2 (stereo unspecified)")
"1 (yes)"
>>> category_label("C=CCn1c(=N)n(CC(O)c2ccco2)c2ccccc21.Cl (stereo unspecified)")
"1 (yes)"
>>> category_label("O=C(CCC1CCCC1)Nc1cccc(Cl)c1")
"1 (yes)"
>>> category_label("Cl.O=C(O)/C=C/c1ccc(Cn2ccnc2)cc1")
"1 (yes)"
>>> category_label("N[C@H](Cc1ccccc1)C(=O)O")
"1 (yes)"
>>> category_label("O=C(CCc1csc(NC(=O)c2ccco2)n1)Nc1ccc(Cl)cc1")
"1 (yes)"
>>> category_label("CN(C)c1nc(CNS(C)(=O)=O)nc(N2CCOCC2)n1")
"1 (yes)"
>>> category_label("O=C(C=Cc1ccc(-c2cccc(Cl)c2)o1)c1ccc(Cl)cc1")
"1 (yes)"
>>> category_label("CN(C)CCCN1c2ccccc2Sc2ccc(Cl)cc21")
"0 (no)"
>>> category_label("O=C1C(=Cc2ccncc2)CCC1=Cc1ccncc1")
"1 (yes)"
>>> category_label("O=C(OC(=Cc1nccn1Cc1ccc(Cl)cc1)c1ccccc1)c1ccccc1")
"1 (yes)"
>>> category_label("O=C(CCn1c(=O)oc2ccccc21)Nc1ccncc1")
"1 (yes)"
>>> category_label("CN1CCN(C2=Nc3ccccc3Oc3ccc(Cl)cc32)CC1")
"1 (yes)"
>>> category_label("O=C(NCCCCNC(=O)c1cncc(Br)c1)c1cncc(Br)c1")
"1 (yes)"
>>> category_label("O=C1C(N2CCC(O)C2)CCN1CC(F)(F)F (stereo unspecified)")
"1 (yes)"
>>> category_label("O=C1CCCC2=C1C(c1ccc(C(F)(F)F)cc1)Nc1ccc(C(=O)c3ccccc3)cc1N2 (stereo unspecified)")
"1 (yes)"
>>> category_label("c1cn2cc(-c3ccc4cn[nH]c4c3)nc(Nc3ccc(N4CCOCC4)cc3)c2n1")
"1 (yes)"
>>> category_label("Cc1nnc(NC(=O)c2cccc([N+](=O)[O-])c2)s1")
"1 (yes)"
>>> category_label("CS(=O)(=O)N(Cc1ccccc1)c1ccc(C(=O)NCCSCc2ccc(Cl)cc2)cc1")
"1 (yes)"
>>> category_label("COc1ccc(NC(=O)CN(c2ccc(C)c(C)c2)S(C)(=O)=O)cc1")
"1 (yes)"
>>> category_label("CCOC(=O)C1=C(C)NC(=O)N(C(C)=O)C1c1ccc(Br)cc1 (stereo unspecified)")
"0 (no)"
>>> category_label("CNC1(C)C2CCC(C2)C1(C)C.Cl (stereo unspecified)")
"1 (yes)"
>>> category_label("COc1cc2c(cc1OC)C1C(=O)c3ccc4c(c3OC1CO2)C=CC(C)(C)O4 (stereo unspecified)")
"1 (yes)"
>>> category_label("Br.O=S(=O)(c1ccc(-c2csc(Nc3cccc4ccccc34)n2)cc1)N1CCOCC1")
"1 (yes)"
>>> category_label("CN(c1ccccc1)c1nnc(C(C)(C)C)c(=O)[nH]1")
"1 (yes)"
>>> category_label("COC(=O)C1=CN(CC2CCCO2)C=C(C(=O)OC)C1c1cccc(F)c1 (stereo unspecified)")
"1 (yes)"
>>> category_label("Cc1cccc(CSc2nn3c(=O)c(C)nnc3s2)c1")
"1 (yes)"
>>> category_label("CCN(CC)c1nc(Nc2ccc([N+](=O)[O-])cc2)nc(N(CC)CC)n1")
"1 (yes)"
